# maps each entry to its GI50
# Tested on: TK-10 renal
# Protocol Text: NCI tumour cell line growth inhibition, 48 h

Example cases with answers are listed next.
Compound | GI50
O=C1CCc2c(sc3[nH]c(=S)n(Cc4ccccc4)c(=O)c23)C1 | 4.51 µM
COc1ccc2c(c1)[n+](=O)c(C(=O)/C=C/c1cc(OC)c(OC)c(OC)c1)c(C)n2[O-] | 18.9 µM
COc1ccc(-c2ccc(/C=N/n3c(C)nn(CN4CCN(C)CC4)c3=S)o2)c([N+](=O)[O-])c1 | 24.3 µM

[in] Given c1ccc(Cn2c(-c3ccc(OC[C@H](C4CCNCC4)n4c(-c5ccccc5)nc5ccccc54)cc3)nc3ccccc32)cc1 , respond with its GI50.
[out] 1.63 µM

[in] Given N#Cc1ccc(C(c2ccc(C#N)cc2)n2cncn2)cc1 , respond with its GI50.
[out] 1310 µM

[in] Given C[C@H]1C(Oc2ccc(O)cc2)OC2OC3(C)CCC4[C@H](C)CCC1C24OO3 (stereo partly drawn) , respond with its GI50.
[out] 15.9 µM

[in] Given Nc1nnc(Cn2c(-c3ccccc3)nc3ccc(Br)cc3c2=O)s1 , respond with its GI50.
[out] 32 µM

[in] Given COc1cc2cc(c1Cl)N(C)C(=O)C[C@H](OC(=O)[C@H](C)N(C)C(C)=O)[C@]1(C)O[C@H]1[C@H](C)[C@@H]1C[C@@](O)(NC(=O)O1)[C@H](OC)C=C/C=C(\C)C2 , respond with its GI50.
[out] 0.0144 µM

* * *

# maps each entry to its TGI
# System: T-47D breast
# Protocol Text: NCI tumour cell line growth inhibition, 48 h

Molecule | TGI
O=C1/C(=C/c2ccccc2)CN(C(=O)OCc2ccccc2)C/C1=C\c1ccccc1 | > 100 µM

[in] Given O=[N+]([O-])c1ccc2ncccc2c1Cl , respond with its TGI.
[out] 42.1 µM

[in] Given COc1cc2c(cc1OCc1ccccc1)NC(=S)[C@@H]1CCCN1C2=S , respond with its TGI.
[out] > 100 µM

[in] Given COc1cc2nc3cc([N+](=O)[O-])ccc3c(NCCCNCC(C)(C)O)c2cc1OC , respond with its TGI.
[out] 0.756 µM

[in] Given CCCCCCCCCCCCOC1C(CNC(=O)C2OC3OC(C)(C)OC3C2NC(=O)CN2CCCCCC2)OC2OC(C)(C)OC21 (stereo not given) , respond with its TGI.
[out] 22.8 µM

[in] Given O=C(O)c1oc(C(=O)O)c(C(=O)O)c1C(=O)O , respond with its TGI.
[out] > 100 µM

[in] Given CCOC(=O)/C=C1\c2ccccc2C(=O)N1CC(=O)OCC , respond with its TGI.
[out] > 100 µM

* * *

# System: U251 CNS
# Protocol Text: NCI tumour cell line growth inhibition, 48 h
Observed Property: TGI (µM)
Output spec: scalar in µM, unitless text.

Example cases with answers are listed next.
Compound | TGI (µM)
CC(=O)[O][Hg][c]1ccccc1 | 1.75
CCc1nc(N)nc(N)c1-c1ccc(NCCc2ccccc2)c([N+](=O)[O-])c1 | 47.3
O=C(/C=C/c1ccc(O)c(O)c1O)OCCc1ccccc1 | 80.6
Cc1ccc2[nH]c3c(ncc4[nH]c5ccccc5c43)c2c1 | 28

[in] Given CC(=O)OCC1O[C@@H]([S-])C(OC(C)=O)[C@H](OC(C)=O)[C@@H]1OC(C)=O.[Au+].c1ccc(CN2[CH-]N(Cc3ccccc3)C(c3ccccc3)=C2c2ccccc2)cc1 , respond with its TGI.
[out] 3.09

[in] Given O=C1C2c3[nH]c4ccccc4c3[C@@H]3CCCCC3C2C(=O)N1c1ccccc1 (some centres undefined) , respond with its TGI.
[out] 28

[in] Given COc1cc2nc3cc([N+](=O)[O-])ccc3c(NCCCNCC(C)(C)O)c2cc1OC , respond with its TGI.
[out] 1.01

[in] Given CCC(C(=O)[O-])C(=O)[O-].CCC(C(=O)[O-])C(=O)[O-].N.N.NCCCCCCN.[Pt+4].[Pt+4] , respond with its TGI.
[out] 16.5

[in] Given O=[N+]([O-])c1ccc(Sc2c3ccccc3nc3ccccc23)nc1 , respond with its TGI.
[out] 46.3

[in] Given CCCCCCCCCCCCOC1C(CNC(=O)C2OC3OC(C)(C)OC3C2NC(=O)CN2CCCCCC2)OC2OC(C)(C)OC21 (centres undefined) , respond with its TGI.
[out] 15.9

[in] Given O=[N+]([O-])c1ccc2ncccc2c1Cl , respond with its TGI.
[out] 11.8

[in] Given CCCCCCCCCCCCN(O)C(=O)c1ccccc1 , respond with its TGI.
[out] 29.8

[in] Given NC(=O)NC(=O)c1cccc(NC(=O)CBr)c1 , respond with its TGI.
[out] 0.0582

[in] Given CN(CCCNC(=O)c1nn(-c2ccc(Cl)cc2Cl)c2c1ccc1ccccc12)CCCNC(=O)c1nn(-c2ccc(Cl)cc2Cl)c2c1ccc1ccccc12 , respond with its TGI.
[out] 3.07

[in] Given Cc1ccc(/C=C/C(=O)c2cc(CN(C)C)c(O)c(CN(C)C)c2)cc1 , respond with its TGI.
[out] 58

[in] Given CC(=O)OC1CC2C(C)(C)C(=O)C=CC2(C)C2CCC3(C)C(c4ccoc4)OC(=O)C4OC43C12C (centres undefined) , respond with its TGI.
[out] 26.1

* * *

# Test system: RXF 393 renal
# Protocol Text: NCI tumour cell line growth inhibition, 48 h; in the data active means GI50 below about 0.43 µM; inactive means the rest
Form entry, call: pick from active, inactive

Compound | Experimental System | Classification
N#Cc1ccc(C(c2ccc(C#N)cc2)n2cncn2)cc1 | RXF 393 renal | inactive

Turning to the following compound.
[in] Tell me the recorded outcome of this test for O=C(O)C1(Cc2cccc(Nc3nccs3)n2)CCC(Oc2cccc(Cl)c2F)CC1 (stereo unspecified) .
[out] active

* * *

# Test system: M14 melanoma
# Protocol Text: NCI tumour cell line growth inhibition, 48 h
# maps each entry to its GI50

Compound | Experimental System | Observed Property | Result
Nc1nc(N)c2nc(CNc3ccc(C(=O)NC(CCCNC(=O)c4ccccc4C(=O)O)C(=O)O)cc3)cnc2n1 (stereo unspecified) | M14 melanoma | GI50 | 0.0226 µM

[in] Return reported GI50 for target or system M14 melanoma, item O=C1C(Cl)=C(Nc2cccc(O)c2)C(=O)N1c1ccccc1Cl .
[out] 21.5 µM

[in] Return reported GI50 for target or system M14 melanoma, item Nc1nnc(Cn2c(-c3ccccc3)nc3ccc(Br)cc3c2=O)s1 .
[out] 49 µM

[in] Return reported GI50 for target or system M14 melanoma, item CN(CCCl)c1ccc(/C=C/C2=[N+](C)c3ccccc3C2(C)C)cc1 .
[out] 1.03 µM

[in] Return reported GI50 for target or system M14 melanoma, item O=C(OCc1ccc2c(Cl)cc(Cl)c(O)c2n1)c1cc2ccccc2[nH]1 .
[out] 0.279 µM

[in] Return reported GI50 for target or system M14 melanoma, item CCOC(=O)c1cc2c(n1Cc1ccccc1)-c1oncc1CC2 .
[out] 3.69 µM

* * *

# Tested on: NCI-H522 lung
# Protocol Text: NCI tumour cell line growth inhibition, 48 h
Observed Property: TGI (µM)
Output spec: scalar in µM, unitless text.

Compound | TGI (µM)
COc1cc(N(CCC#N)CCC#N)ccc1/C(N=Nc1ccccc1)=N/NC(=O)c1cc(Br)ccc1O | 67.9
CC1=C[S+](c2ccccc2)c2cccc3cc4ccccc4c1c23 (centres undefined) | 1.57
COC(=O)[C@@]12OC[C@]34C([C@@H](O)C1O)[C@@]1(C)CC(=O)C(OC(=O)/C=C(/c5ccccc5)C(F)(F)F)=C(C)C1C[C@H]3OC(=O)[C@H](O)[C@H]42 (some centres undefined) | 24.5
CS(=O)(=O)CCNCc1ccc(-c2ccc3ncnc(Nc4ccc(OCc5ccccc5)c(Cl)c4)c3c2)o1 | 6.79

As a next step, examine the compound that follows.
[in] Given CC(=O)[O][Hg][c]1ccccc1 , respond with its TGI.
[out] 0.292

* * *

# Tested on: NCI-H522 lung
# Protocol Text: NCI tumour cell line growth inhibition, 48 h
# maps each entry to its TGI
Output spec: scalar in µM, unitless text.

Example cases with answers are listed next.
Compound | Unit Label | TGI
CC(=O)OCC1O[C@@H]([S-])C(OC(C)=O)[C@H](OC(C)=O)[C@@H]1OC(C)=O.[Au+].c1ccc(CN2[CH-]N(Cc3ccccc3)C(c3ccccc3)=C2c2ccccc2)cc1 | µM | 3.66
c1ccc(C[n+]2cccc(-c3cc4ccccc4[nH]3)c2)cc1 | µM | 53.9
Nc1c(C(=O)Nc2ccccc2F)sc2nc3c(cc12)C(=O)CCC3 | µM | 3.9
CC(=O)OC1CC2C(C)(C)C(=O)C=CC2(C)C2CCC3(C)C(c4ccoc4)OC(=O)C4OC43C12C (centres undefined) | µM | 19.8
C=C(C)[C@@H]1CC[C@]2(COC3CCCCO3)CC[C@]3(C)[C@H](CC[C@@H]4[C@@]5(C)C=C(C=O)C(=O)C(C)(C)[C@@H]5CC[C@]43C)[C@@H]12 (some centres undefined) | µM | 2.86
O=C1CCc2c(sc3[nH]c(=S)n(Cc4ccccc4)c(=O)c23)C1 | µM | 5.05
CCCCC#CC#Cc1cccc(=O)o1 | µM | 52.1
Cc1ccc(S(=O)(=O)Cc2nc(-c3ccc(C(=O)NCc4cccnc4)cc3)oc2C)cc1 | µM | 27.7

[in] Return reported TGI for target or system NCI-H522 lung, item CC(=O)OC1CC[C@]2(C)C3CC[C@@]4(C)C(CCC4[C@H](C)CCCC(C)C)[C@@H]3CCC2(Br)C1 (some centres undefined) .
[out] 29.1
